ASSAYED SYSTEM: T1, human PRLR (Biacore antigen) (human, UniProt P16471 25-234, limits assumed)
T1 construct: The construct injected over captured antibody is not described (a soluble form is likely); also called huPRLR
T1 sequence: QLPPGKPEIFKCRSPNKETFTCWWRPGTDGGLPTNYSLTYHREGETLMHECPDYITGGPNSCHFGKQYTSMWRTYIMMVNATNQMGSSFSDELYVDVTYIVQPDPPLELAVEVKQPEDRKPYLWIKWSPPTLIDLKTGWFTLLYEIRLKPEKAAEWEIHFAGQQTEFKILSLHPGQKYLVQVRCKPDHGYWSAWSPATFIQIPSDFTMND
ASSAY PROTOCOL: SPR Biacore
Listing of recorded Kd by entry.
Entry rule: numbers only, all in nM.

- Ab19 (antibody, human IgG1, kappa, V domains shown, humanized from Ab6; G1; also called Ab1 HC.1a and Ab1 LC.1a) VH: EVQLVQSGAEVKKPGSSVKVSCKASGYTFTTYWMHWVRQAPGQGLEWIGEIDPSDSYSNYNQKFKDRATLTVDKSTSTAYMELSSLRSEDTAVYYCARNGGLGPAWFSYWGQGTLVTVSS VL: DIQMTQSPSSVSASVGDRVTITCKASQYVGTAVAWYQQKPGKSPKLLIYSASNRYTGVPSRFSDSGSGTDFTLTISSLQPEDFATYFCQQYSSYPWTFGGGTKVEIKR: 0.409

Kindly review the next binder as well.
Summary for this binder, Ab55 (antibody, human IgG1, kappa, V domains shown, humanized from Ab7 (back mutations on Ab39); G1; also called Ab4 HC.1a.2 and Ab4 LC.1a) VH: EVQLVQSGAEVKKPGSSVKVSCKASGYTFTSYWIHWVRQAPGQGLEWIGEIDPSDSYTNYNQKFKGRATLTVDRSSSTAYMELSSLRSEDTAVYYCGRSFFTNWFAYWGQGTLVTVSS VL: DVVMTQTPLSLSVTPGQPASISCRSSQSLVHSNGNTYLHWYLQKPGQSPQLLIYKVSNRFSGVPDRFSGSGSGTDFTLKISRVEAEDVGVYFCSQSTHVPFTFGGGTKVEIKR : Kd is 0.67

Recorded values, source patent US20170022281A1.
